Method Description: in vitro
Stated Conditions: human, hela cells, % viability
Property Measured: viability at 28.5 h, 10 µM (%)
Numbers only, in %.

Worked cases, answers included:
CC(Sc1nc(-c2cccnc2)ccc1C#N)C(=O)O (stereo not drawn) [CBK267452]	90.7
CCC(CC)C(=O)Nc1ccc([C@@H](O)[C@H]2COCC(=O)N2Cc2ccc(OC)cc2)cc1 [CBK289677]	102
Cc1cc(Br)cc(C)c1OCCNCCN(C)C [CBK267808G]	106

// for each molecule in input: emit viability at 28.5 h, 10 µM
1. O=C1CC(c2ccccc2)CC(NCc2ccccc2)=C1C(=S)Nc1ccccc1 (stereo not drawn) [CBK264491]
2. O=C(NC1CCCCCC1)c1[nH]nc(O)c1Cc1c(Cl)cccc1Cl [CBK107847]
3. Fc1ccc(-c2cn3ccnc3c(Nc3cccc(OC(F)(F)C(F)F)c3)n2)cc1Cl [CBK037265]
4. Cc1ccc(NC(=O)CCC(=O)N2CCC3(CC2)CC(=O)c2ccccc2O3)cc1 [CBK156524]
5. CCOc1cc(/C=C2\N=C(c3ccc(OC)cc3)OC2=O)cc(Br)c1OCC(=O)OC [CBK102552]

1: 104; 2: 91.9; 3: 98.1; 4: 94.1; 5: 96.3

# lookup: viability at 28.5 h, 10 µM of O=C(CC1SC(NC2CC3C=CC2C3)=NC1=O)NCc1ccccc1 (stereo not drawn) [CBK049940]
87.1

###

Method Description: in vitro
Stated Conditions: human, hela cells, % viability
Exercise: for every item that follows, state its recorded viability at 28.5 h, 10 µM.
One number for each entry, in %.

Worked cases, answers included:
Cc1ccc2c(c1)CC(=O)NC21CCN(C(=O)C2CC2C(=O)O)CC1 (stereo not drawn)	103
CC1(C)CCCC2=C1CC(C(=O)O)C(C(=O)NCc1cccnc1)C2 (stereo not drawn)	83.3
C=CCC1(CC=C)CCN1C(=O)c1cc(-c2ccccn2)n[nH]1	106
COc1ccc([C@@]23CC[C@H](NC(=O)CS(=O)(=O)c4ccccc4)C[C@@H]2N(C)CC3)cc1OC	105

// for each molecule in input: emit viability at 28.5 h, 10 µM
1. Cc1cc(C(F)(F)F)c2c(NC/C=C/c3ccco3)n[nH]c2n1
2. O=C(c1ccccc1F)N1CCCC1c1n[nH]cc1-c1ccncc1 (stereo not drawn)
3. O=S(=O)(c1ccc(-n2cnc(Cl)c2Cl)cc1)N1CCCN(Cc2csc(-c3ccccc3)n2)CC1

1: 92.7; 2: 87.7; 3: 104

// for each molecule in input: emit viability at 28.5 h, 10 µM
1. c1ccc(Nc2nc(-c3ccco3)cn3ccnc23)cc1
2. O=C1N[C@@H]2CCN(C(=O)C3CC3)[C@@H]2C(=O)N1c1ccc(F)cc1

[86.9, 99.6]

###

Method Description: in vitro
Stated Conditions: human, hela cells, % viability
Property Measured: viability at 28.5 h, 10 µM (%)
One number for each entry, in %.

O=C(O)C(CCO)Sc1nnc(Nc2ccc(Oc3ccccc3)cc2)s1 (stereo not drawn)	85.7
Cc1ccccc1NS(=O)(=O)c1cc(C(=O)Nc2ccc(S(=O)(=O)N3CCCC3)cc2)ccc1C	92.9
CC(=O)Nc1ccc(Nc2ncnc3scc(-c4ccccc4)c23)cc1	93.6
Cc1ccc(S(=O)(=O)c2ccccc2)cc1S(=O)(=O)NCc1ccncc1	98.4
CCN(CC)CCCNC(=O)N1CCN(Cc2ccccc2)CC1	89.8

// for each compound in input: emit viability at 28.5 h, 10 µM
1. O=C(O)c1cccc(-n2c(S)nnc2-c2ccncc2)c1
2. Cn1ccnc1C1(O)CC2CCC(C1)N2C(=O)C1CCCC1 (stereo not drawn)
3. CC(=O)N1CCC2(C/C=C/C[C@H]3CN(C(=O)Cc4cccc(F)c4)CC[C@H]3NC(=O)CNC2=O)CC1
4. CC1=NN(c2nc(-c3ccc(Br)cc3)cs2)C(=O)C1/N=N/c1ccccc1C(=O)O (stereo not drawn)

[105, 86.4, 93.6, 91.8]

###

Exercise: for every item that follows, state its recorded viability at 28.5 h, 10 µM.
Method Description: in vitro
Stated Conditions: human, hela cells, % viability
One number for each entry, in %.

Worked cases, answers included:
CCCNC(=O)Cn1nc(CC)n2c(cc3ccsc32)c1=O	91.5
COc1ccc2[nH]cc(CCNC(=O)N(C)C3CCN(C)C3)c2c1 (stereo not shown)	112
CC(=O)NCCC1CCN(c2nc(C(C)(C)C)nc3c2cnn3C)CC1	96.7
CC(=O)c1ccc(-c2cc(C(=O)NCc3cccc(C(F)(F)F)c3)cnc2-c2ccccc2)s1	90.1
COc1ccccc1CN(C)C(C)C(=O)Nc1sccc1C(N)=O (stereo not shown)	109

// for each compound in input: emit viability at 28.5 h, 10 µM
1. CCC(=O)N1CCN(c2nc3ccc(OC)cc3s2)CC1
2. COCCN1CC(CNC(=O)c2cccc(F)c2O)CC1=O (stereo not shown)
3. Cc1ccc(-c2ccc(CCC(=O)O)n2NC(=O)c2ccc([N+](=O)[O-])cc2)cc1
4. COc1ccc(CNCc2cccc(OC)c2OC)cc1Br
5. COC(=O)c1ccc(NC(=O)CCN2C(=O)c3cccc([N+](=O)[O-])c3C2=O)cc1

92.2
107
109
113
98.1

###

Exercise: for every item that follows, state its recorded viability at 28.5 h, 10 µM.
Method Description: in vitro
Stated Conditions: human, hela cells, % viability
Answers are plain numbers, in %.

Worked cases, answers included:
COc1nn(CC(=O)Nc2cccc(CCc3ccncc3)c2)c(=O)c2ccccc12 [CBK285560]	94.5
COc1ccc([C@@]23CC[C@@H](NC(=O)Nc4cccc(-c5cnco5)c4)C[C@@H]2N(C)CC3)cc1OC [CBK059338T]	92.3
COc1ncc(-c2cncc(N[C@H](C)c3ccccc3)n2)c(OC)n1 [CBK065267]	92.4

# lookup: viability at 28.5 h, 10 µM of Cn1nc(-c2cccs2)cc1[C@H]1CN2CC[C@H]1C[C@@H]2CNC(=O)Nc1ccccc1 [CBK289104]
89

###

Method Description: in vitro
Stated Conditions: human, hela cells, % viability
Property Measured: viability at 28.5 h, 10 µM (%)
Give bare numbers, in %.

C[N+]1(c2ccccc2)CCC(N)=N1 (stereo not drawn) [CBK262213I]	91.8
Cc1cc(C)nc(NC2=NCCN2C(=S)Nc2ccccc2)n1	95.7
CC(=O)SCCC(=O)N1C(C)CCCC1C(=O)O (stereo not drawn)	93.1
CCOc1ccc(-n2c(SCC(=O)Nc3cc(C(=O)O)ccc3Cl)nc3ccccc3c2=O)cc1	109
Cc1ccc(C(=O)NCC(O)c2ccc(F)cc2F)cn1 (stereo not drawn)	89.8
Cc1nc2c(C(=O)NCCOCCO)cnn2c(C)c1Cc1ccc(F)c(Cl)c1	96.3

// for each compound in input: emit viability at 28.5 h, 10 µM
1. CC(=O)N1CCC2(C/C=C/C[C@H]3CN(CCCc4ccccc4)CC[C@H]3NC(=O)CNC2=O)CC1
2. CCCC(=O)N1CCC(Cc2ccc(-c3cccc(C)c3)cc2)(C(=O)NC(C)C)CC1
3. O=C1CC(Cl)Sc2sc3ccccc3c21 (stereo not drawn)
4. COc1ccc(S(=O)(=O)NCCN2CCOCC2)cc1Br
5. O=C(CSc1nc(O)cc(=O)n1-c1ccccc1)c1ccccc1

1. 90.9
2. 93.9
3. 86.6
4. 91.4
5. 103

// for each compound in input: emit viability at 28.5 h, 10 µM
1. O=S(=O)(CCSc1ccc(Cl)cc1)Oc1ccccc1
2. COCC(=O)N1c2ccccc2CC[C@@H]1C(=O)OC
3. COc1ncc(-c2cncc(N3CCN(c4ccccc4C#N)CC3)n2)c(OC)n1
4. CCNC(=S)NC(=Nc1nc(C)cc(C)n1)NCc1cccnc1

1. 102
2. 103
3. 105
4. 97.2

// for each compound in input: emit viability at 28.5 h, 10 µM
1. C/C(CC(=O)Nc1ccccc1C(N)=O)=N\NC(=O)c1ccoc1C
2. Cn1c(N2CC[C@H](O)C2)nc2cc(C(=O)NCCC3CCCC3)ccc21
3. CC(C)(C)NC(=O)C1C2CCC3(CC(=O)c4ccccc4O3)C21 (stereo not drawn)
4. CCc1c(SCC(=O)O)nc2ccccc2c1C
5. CCn1c(C(CC(C)C)NC(=O)c2ccco2)nc2cccnc21 (stereo not drawn)
6. O=C1CC2(CCN(C(=O)C3CCCCC3)CC2)Oc2ccc(F)cc21

[100, 87.9, 81.8, 95.8, 94.3, 74.6]

###

Method Description: in vitro
Stated Conditions: human, hela cells, % viability
Property Measured: viability at 28.5 h, 10 µM (%)
Numbers only, in %.

Worked cases, answers included:
Cc1ccc(OCC(=O)N2N=C(CC(C)C)CC2(O)C(F)(F)F)cc1C (centres unmarked)	91.5
CC(C)(O)Cc1ccccc1C(=O)NC1CCCCCC1	81.7
COc1cc(-c2ccc(C(=O)N(C)CCN(C)C)c(N(C)C)n2)cc(OC)c1OC	109
NC(=O)c1ccc(NCCCN2CCOCC2)c([N+](=O)[O-])c1	104

Query molecule follows.
# lookup: viability at 28.5 h, 10 µM of `O=C(O)C1CCN(C(=O)CSc2nnc(-c3ccccc3F)n2C2CCCC2)CC1`
115
